system: A549/ATCC NSCLC; assay: NCI-60 one-dose screen, 48 h (100 = growth as untreated, 0 = no growth, -100 = all killed); conditions: 10 µM unless noted
About 83,000 compounds went through this panel and 20% of them were active in at least one assay; those are over-represented in the sample as a whole.
growth for assorted compounds
Provide the reading as a plain figure in %.

Some solved cases for reference:
INSERT INTO measurements (compound, tgt, measure_name, unit_text, reported_value) VALUES
  ('O=C(CSc1nnc(-c2ccc(NC(=O)c3cccnc3)cc2)o1)Nc1cccc(Br)c1', 'A549/ATCC NSCLC', 'growth', '%', 95.1),
  ('CC1SC(c2ccc(OCc3ccccc3)cc2)N(NC(=O)C(O)(c2ccccc2)c2ccccc2)C1=O (centres undefined)', 'A549/ATCC NSCLC', 'growth', '%', 49.3),
  ('COC(=O)[C@]12CC[C@@H](C)[C@H](C)[C@@H]1C1=CC[C@@H]3[C@@]4(C)C(C=O)=C[C@@](C)(COS(C)(=O)=O)C4[C@H](O)C[C@@]3(C)[C@]1(C)CC2 (some centres undefined)', 'A549/ATCC NSCLC', 'growth', '%', -67.1),
  ('CN(C)CCCn1c(=O)c2ccccc2c2ccccc21', 'A549/ATCC NSCLC', 'growth', '%', 87.2);

Turning now to a further record.
So for "CCOC(=O)c1c(-c2ccc(Cl)cc2)c(C#N)c(=O)n(-c2ccccc2CC)c1N" , the logged growth turned out to be 85
